FYI, the data here is from ChEMBL document CHEMBL2434967.

# System: Plasmodium falciparum
# assay-comment: Antiplasmodial activity against chloroquine-resistant erythrocyte stages of Plasmodium falciparum Dd2 by parasite lactate dehydrogenase assay
# Format: functional, organism-based
property-label: pIC50
One number for each entry, as −log10 of the molar value.

Field: example entries. Status: answers known.
- smiles-notation: "CCCNC(=S)NCCCNc1ccnc2cc(Cl)ccc12"
  system: "Plasmodium falciparum"
  numeric-readout: 6.59
- smiles-notation: "S=C(NCCCNc1ccnc2cc(Cl)ccc12)NCCCN(CCCCN(CCCNC(=S)NCCCNc1ccnc2cc(Cl)ccc12)CCCNC(=S)NCCCNc1ccnc2cc(Cl)ccc12)CCCNC(=S)NCCCNc1ccnc2cc(Cl)ccc12"
  system: "Plasmodium falciparum"
  numeric-readout: 6.29
- smiles-notation: "S=C(NCCCNC(=S)NCCCNc1ccnc2cc(Cl)ccc12)NCCCNc1ccnc2cc(Cl)ccc12"
  system: "Plasmodium falciparum"
  numeric-readout: 6.64

Then this compound:
Exam item: Name the reported pIC50 value associated with the compound S=C(NCCCNc1ccnc2cc(Cl)ccc12)NCCN(CCNC(=S)NCCCNc1ccnc2cc(Cl)ccc12)CCNC(=S)NCCCNc1ccnc2cc(Cl)ccc12
Marked response: 6.28

###

Hi there, I'd appreciate the recorded inhibition of growth at 10 µM for every entry that follows.
# Tested on: Trichomonas vaginalis
# assay-comment: Antimicrobial activity against Trichomonas vaginalis G3 assessed as growth inhibition at 10 uM after 24 hrs by hemocytometry
# Format: functional
# assay-conditions: G3, 24 h, read-out: GI

- smiles-notation: "CCCNC(=S)NCCCNc1ccnc2cc(Cl)ccc12"
  system: "Trichomonas vaginalis"
  result: "34.9%"
- smiles-notation: "S=C(NCCCNC(=S)NCCCNc1ccnc2cc(Cl)ccc12)NCCCNc1ccnc2cc(Cl)ccc12"
  system: "Trichomonas vaginalis"
  result: "55.9%"
- smiles-notation: "S=C(NCCCNc1ccnc2cc(Cl)ccc12)NCCCN(CCCCN(CCCNC(=S)NCCCNc1ccnc2cc(Cl)ccc12)CCCNC(=S)NCCCNc1ccnc2cc(Cl)ccc12)CCCNC(=S)NCCCNc1ccnc2cc(Cl)ccc12"
  system: "Trichomonas vaginalis"
  result: "58.7%"
- smiles-notation: "S=C(NCCCNc1ccnc2cc(Cl)ccc12)NCCN(CCNC(=S)NCCCNc1ccnc2cc(Cl)ccc12)CCNC(=S)NCCCNc1ccnc2cc(Cl)ccc12"
  system: "Trichomonas vaginalis"
  result: "51.4%"

Then this molecule:
Exam item: Name the reported inhibition of growth at 10 µM value associated with the molecule Cc1ncc([N+](=O)[O-])n1CCO
Marked response: 100%

###

# assay-comment: Inhibition of beta-hematin formation after overnight incubation by NP-40 detergent-mediated spectroscopic analysis
# Format: functional
property-label: pIC50
Numbers only, as −log10 of the molar value.

Lab note: each compound below needs its pIC50 filled in.
1. S=C(NCCCNc1ccnc2cc(Cl)ccc12)NCCN(CCNC(=S)NCCCNc1ccnc2cc(Cl)ccc12)CCNC(=S)NCCCNc1ccnc2cc(Cl)ccc12
2. S=C(NCCCNC(=S)NCCCNc1ccnc2cc(Cl)ccc12)NCCCNc1ccnc2cc(Cl)ccc12
3. CCN(CC)CCCC(C)Nc1ccnc2cc(Cl)ccc12 (stereo not given) [CHLOROQUINE]

Marked response:
1: 5.35; 2: 5.19; 3: 4.13

Exam item: Name the reported pIC50 value associated with the compound CCCNC(=S)NCCCNc1ccnc2cc(Cl)ccc12
Marked response: 4.24

###

Hi there, I'd appreciate the recorded Ratio IC50 for every entry that follows.
# System: Plasmodium falciparum
# assay-comment: Resistance index, ratio of IC50 for chloroquine-resistant Plasmodium falciparum Dd2 to IC50 for chloroquine-sensitive Plasmodium falciparum NF54
# Format: functional
Give bare numbers.

Field: example entries. Status: answers known.
- smiles-notation: "S=C(NCCCNC(=S)NCCCNc1ccnc2cc(Cl)ccc12)NCCCNc1ccnc2cc(Cl)ccc12"
  Ratio IC50: 0.7
- smiles-notation: "S=C(NCCCNc1ccnc2cc(Cl)ccc12)NCCCN(CCCCN(CCCNC(=S)NCCCNc1ccnc2cc(Cl)ccc12)CCCNC(=S)NCCCNc1ccnc2cc(Cl)ccc12)CCCNC(=S)NCCCNc1ccnc2cc(Cl)ccc12"
  Ratio IC50: 2.5
- smiles-notation: "S=C(NCCCNc1ccnc2cc(Cl)ccc12)NCCN(CCNC(=S)NCCCNc1ccnc2cc(Cl)ccc12)CCNC(=S)NCCCNc1ccnc2cc(Cl)ccc12"
  Ratio IC50: 5.8

Exam item: Name the reported Ratio IC50 value associated with the compound CCCNC(=S)NCCCNc1ccnc2cc(Cl)ccc12
Marked response: 1.6

###

Hi there, I'd appreciate the recorded IC50 for every entry that follows.
# assay-comment: Cytotoxicity against human WHCO1 cells after 48 hrs by MTT assay
# Type: functional, cell-based
# assay-conditions: WHCO1, 48 h
Numbers only, in µM.

Field: example entries. Status: answers known.
- smiles-notation: "S=C(NCCCNc1ccnc2cc(Cl)ccc12)NCCCN(CCCCN(CCCNC(=S)NCCCNc1ccnc2cc(Cl)ccc12)CCCNC(=S)NCCCNc1ccnc2cc(Cl)ccc12)CCCNC(=S)NCCCNc1ccnc2cc(Cl)ccc12"
  property-label: "IC50"
  numeric-readout: 0.99
- smiles-notation: "S=C(NCCCNc1ccnc2cc(Cl)ccc12)NCCN(CCNC(=S)NCCCNc1ccnc2cc(Cl)ccc12)CCNC(=S)NCCCNc1ccnc2cc(Cl)ccc12"
  property-label: "IC50"
  numeric-readout: 6.21
- smiles-notation: "S=C(NCCCNC(=S)NCCCNc1ccnc2cc(Cl)ccc12)NCCCNc1ccnc2cc(Cl)ccc12"
  property-label: "IC50"
  numeric-readout: 38.4

Then this molecule:
Exam item: Name the reported IC50 value associated with the molecule CCCNC(=S)NCCCNc1ccnc2cc(Cl)ccc12
Marked response: 43.8

###

# System: Plasmodium falciparum
# assay-comment: Antiplasmodial activity against chloroquine-sensitive erythrocyte stages of Plasmodium falciparum NF54 by parasite lactate dehydrogenase assay
# Assay type: functional, organism-based
Hi there, I'd appreciate the recorded pIC50 for every entry that follows.
One number for each entry, as −log10 of the molar value.

Field: example entries. Status: answers known.
- smiles-notation: "CCCNC(=S)NCCCNc1ccnc2cc(Cl)ccc12"
  pIC50: 6.80
- smiles-notation: "S=C(NCCCNc1ccnc2cc(Cl)ccc12)NCCN(CCNC(=S)NCCCNc1ccnc2cc(Cl)ccc12)CCNC(=S)NCCCNc1ccnc2cc(Cl)ccc12"
  pIC50: 7.05

Lab note: each compound below needs its pIC50 filled in.
1. S=C(NCCCNc1ccnc2cc(Cl)ccc12)NCCCN(CCCCN(CCCNC(=S)NCCCNc1ccnc2cc(Cl)ccc12)CCCNC(=S)NCCCNc1ccnc2cc(Cl)ccc12)CCCNC(=S)NCCCNc1ccnc2cc(Cl)ccc12
2. S=C(NCCCNC(=S)NCCCNc1ccnc2cc(Cl)ccc12)NCCCNc1ccnc2cc(Cl)ccc12

Marked response:
[6.70, 6.47]
